- target.entity: Gamma-secretase
- run.description: Inhibition of Gamma-secretase in human IMR-32 cells after 2 hrs by ELISA assay
observed.property: IC50 (nM)

Sample answers from the record:
compound: O=S(=O)(c1ncc(Cl)s1)N1c2cc(F)c(F)cc2-c2n[nH]cc2C1C1CC1 (single isomer, unassigned; enantiomer 2)
target.entity: Gamma-secretase
unit.symbol: nM
reported: 0.46

compound: CC1c2c[nH]nc2-c2ccc(OC(=O)N(C)C)cc2N1S(=O)(=O)c1ccc(Cl)cc1 (racemic)
target.entity: Gamma-secretase
unit.symbol: nM
reported: 0.93

compound: N#Cc1ccc(S(=O)(=O)N2c3ccccc3-c3n[nH]cc3C2C2CC2)cc1 (racemic)
target.entity: Gamma-secretase
unit.symbol: nM
reported: 0.74

compound: COc1ccc2c(c1)N(S(=O)(=O)c1ccc(Cl)cc1)C(C)c1c[nH]nc1-2 (racemic)
target.entity: Gamma-secretase
unit.symbol: nM
reported: 2

compound: O=S(=O)(c1ccc(C(F)(F)F)cc1)N1c2cc(Cl)ccc2-c2n[nH]cc2C1C1CC1 (racemic)
target.entity: Gamma-secretase
unit.symbol: nM
reported: 0.44

a = O=S(=O)(c1ccc(C(F)(F)F)cc1)N1c2ncccc2-c2n[nH]cc2C1C1CC1 (racemic)
b = CC1c2cn[nH]c2-c2ccc(O)cc2N1S(=O)(=O)c1ccc(Cl)cc1 (racemic)
Pick the one with the larger IC50: a vs b Your choice should be expressed through its label.
a
(a: 1.1 nM, b: 0.65 nM)

====

- target.entity: Gamma-secretase
- run.description: Inhibition of Gamma-secretase in human IMR-32 cells after 2 hrs by ELISA assay
pIC50: −log10 of the molar value.
observed.property: pIC50

a = COc1ccc(S(=O)(=O)N2c3ccccc3-c3n[nH]cc3C2C2CC2)cc1 (racemic)
b = O=S(=O)(c1ccc(Cl)cn1)N1c2ccc(F)cc2-c2n[nH]cc2C1C1CC1 (racemic)
Of a and b , whose reported pIC50 is the larger number? Give the label under which the chosen entry appears.
b
(b: 8.89, a: 8.49)

====

- run.description: Oxidative metabolic stability in mouse liver microsomes at 1 uM after 30 mins in presence of 1 mM NADPH
- Format: ADME, Microsome
- assay.context: liver microsomes, read-out: Stability
observed.property: remaining at 0.5 h, 1 µM (%)

Record excerpt, results attached:
molecule: CC1c2c[nH]nc2-c2cc(F)ccc2N1S(=O)(=O)c1cn(C)cn1 (racemic)
unit.symbol: %
remaining at 0.5 h, 1 µM: 65
--
molecule: O=S(=O)(c1cccs1)N1c2cc(F)c(F)cc2-c2n[nH]cc2C1C1CC1 (racemic)
unit.symbol: %
remaining at 0.5 h, 1 µM: 5
--
molecule: O=S(=O)(c1ccc(C(F)(F)F)cc1)N1c2ncccc2-c2n[nH]cc2C1C1CC1 (racemic)
unit.symbol: %
remaining at 0.5 h, 1 µM: 53
--
molecule: O=S(=O)(c1ccc(C(F)(F)F)cc1)N1c2cc(-n3ccnc3)ccc2-c2n[nH]cc2C1C1CC1 (racemic)
unit.symbol: %
remaining at 0.5 h, 1 µM: 55
--
molecule: O=S(=O)(c1ccc(OC(F)F)cc1)N1c2ccc(F)cc2-c2n[nH]cc2C1C1CC1 (racemic)
unit.symbol: %
remaining at 0.5 h, 1 µM: 56
--
molecule: CC1c2c[nH]nc2-c2ccncc2N1S(=O)(=O)c1ccc(Cl)cc1 (racemic)
unit.symbol: %
remaining at 0.5 h, 1 µM: 3
--
molecule: CC(C)C1c2c[nH]nc2-c2ccccc2N1S(=O)(=O)c1ccc(Cl)cc1 (racemic)
unit.symbol: %
remaining at 0.5 h, 1 µM: 2
--
molecule: O=S(=O)(c1ccc(Cl)cc1)N1c2ccccc2-c2n[nH]cc2C1C(F)(F)F (racemic)
unit.symbol: %
remaining at 0.5 h, 1 µM: 10

I = O=S(=O)(c1ncc(Cl)s1)N1c2cc(F)c(F)cc2-c2n[nH]cc2C1C1CC1 (single isomer, unassigned; enantiomer 2)
II = CC1c2c[nH]nc2-c2cc(F)ccc2N1S(=O)(=O)c1ccc(Cl)cc1 (racemic)
Higher remaining at 0.5 h, 1 µM between I and II ? Give the label under which the chosen entry appears.
II
(II: 23%, I: 4%)

====

- target.entity: Gamma-secretase
- run.description: Inhibition of Gamma-secretase in human IMR-32 cells after 2 hrs by ELISA assay
observed.property: IC50 (nM)

Examples from the recorded data:
molecule: CC1c2c[nH]nc2-c2c(F)cccc2N1S(=O)(=O)c1ccc(Cl)cc1 (racemic)
unit.symbol: nM
IC50: 1.4
//
molecule: CC1c2cn[nH]c2-c2ccccc2N1S(=O)(=O)c1cccnc1 (racemic)
unit.symbol: nM
IC50: 140
//
molecule: O=S(=O)(c1ccc(C(F)(F)F)cc1)N1c2c[n+]([O-])ccc2-c2n[nH]cc2C1C1CC1 (racemic)
unit.symbol: nM
IC50: 2.4
//
molecule: Cc1nc2c(s1)N(S(=O)(=O)c1ccc(C(F)(F)F)cc1)C(C1CC1)c1c[nH]nc1-2 (racemic)
unit.symbol: nM
IC50: 24
//
molecule: O=S(=O)(c1ccc(C(F)(F)F)cc1)N1c2cc(-n3ccnc3)ccc2-c2n[nH]cc2C1C1CC1 (racemic)
unit.symbol: nM
IC50: 0.24
//
molecule: O=S(=O)(c1ccc(C(F)(F)F)cc1)N1c2cc(-c3cncnc3)ccc2-c2n[nH]cc2C1C1CC1 (racemic)
unit.symbol: nM
IC50: 0.2

I = CC(C)C1c2c[nH]nc2-c2ccccc2N1S(=O)(=O)c1ccc(Cl)cc1 (racemic)
II = CC1c2c[nH]nc2-c2cc(Cl)sc2N1S(=O)(=O)c1ccc(C(F)(F)F)cc1 (racemic)
Identify the entry with the smaller IC50: I or II . Please reply using the label of the selected record.
I
(I: 0.28 nM, II: 4.5 nM)

====

- target.entity: Gamma-secretase
- run.description: Inhibition of Gamma-secretase in human IMR-32 cells after 2 hrs by ELISA assay
observed.property: IC50 (nM)

compound: O=S(=O)(c1ccc(Cl)cc1)N1c2ccccc2-c2n[nH]cc2C1C(F)(F)F (racemic)
IC50, nM: 0.21
//
compound: COC(=O)c1ccc2c(c1)N(S(=O)(=O)c1ccc(C(F)(F)F)cc1)C(C1CC1)c1c[nH]nc1-2 (racemic)
IC50, nM: 0.26

1 = O=[N+]([O-])c1ccc(S(=O)(=O)N2c3cc(F)c(F)cc3-c3n[nH]cc3C2C2CC2)cc1 (racemic)
2 = O=S(=O)(c1ccc(C(F)(F)F)cc1)N1c2cc(N3CCOCC3)ccc2-c2n[nH]cc2C1C1CC1 (racemic)
# min-compare on IC50 between 1 and 2 Identify your pick by its label.
2

====

- run.description: Oxidative metabolic stability in human liver microsomes at 1 uM after 30 mins in presence of 1 mM NADPH
- Type: ADME, Microsome
- assay.context: liver microsomes, read-out: Stability
observed.property: remaining at 0.5 h, 1 µM (%)

1 = CC1c2c[nH]nc2-c2ccncc2N1S(=O)(=O)c1ccc(Cl)cc1 (racemic)
2 = O=S(=O)(c1ccc(C(F)(F)F)cc1)N1c2cc(-c3cscn3)ccc2-c2n[nH]cc2C1C1CC1 (racemic)
3 = CCC1c2cn[nH]c2-c2ccccc2N1S(=O)(=O)c1ccc(Cl)cc1 (racemic)
4 = COc1ccc2c(c1)N(S(=O)(=O)c1ccc(Cl)cc1)C(C)c1c[nH]nc1-2 (racemic)
Parameters: sort_by = remaining at 0.5 h, 1 µM; order = desc; input = items above. Show the ranking through the labels, in the order asked for.
2, 1, 3, 4

====

- run.description: Metabolic stability in mouse liver microsomes at 2 uM after 30 mins in presence of 1 mM UDPGA
- Format: ADME, Microsome
- assay.context: read-out: Stability
observed.property: remaining at 0.5 h, 2 µM (%)

compound.smiles: C[C@@H]1c2c[nH]nc2-c2cc(F)ccc2N1S(=O)(=O)c1ccc(Cl)cc1
unit.symbol: %
remaining at 0.5 h, 2 µM: 91
--
compound.smiles: O=S(=O)(c1ccc(C(F)(F)F)cn1)N1c2ccc(F)cc2-c2n[nH]cc2[C@H]1C1CC1
unit.symbol: %
remaining at 0.5 h, 2 µM: 89

====

- run.description: Oxidative metabolic stability in human liver microsomes at 1 uM after 30 mins in presence of 1 mM NADPH
- Format: ADME, Microsome
- assay.context: liver microsomes, read-out: Stability
observed.property: remaining at 0.5 h, 1 µM (%)

// below: answered compounds
compound: O=S(=O)(c1ccc(Cl)cc1)N1c2ccccc2-c2n[nH]cc2C1C1CC1 (racemic)
observed.property: remaining at 0.5 h, 1 µM
unit.symbol: %
reported: 4
//
compound: CC1c2c[nH]nc2-c2ccccc2N1S(=O)(=O)c1ccccn1 (racemic)
observed.property: remaining at 0.5 h, 1 µM
unit.symbol: %
reported: 73
//
compound: O=S(=O)(c1ccc(C(F)(F)F)cc1)N1c2cc(-n3ccnc3)ccc2-c2n[nH]cc2C1C1CC1 (racemic)
observed.property: remaining at 0.5 h, 1 µM
unit.symbol: %
reported: 59

A = CC1c2c[nH]nc2-c2c(F)cccc2N1S(=O)(=O)c1ccc(Cl)cc1 (racemic)
B = O=S(=O)(c1ccc(Cl)cn1)N1c2ccc(F)cc2-c2n[nH]cc2C1C1CC1 (racemic)
Between the entries labelled A and B , which has a larger remaining at 0.5 h, 1 µM value on record? Answer format: the label of the selected item.
B
